test system: MDA-MB-435; test: NCI tumour cell line growth inhibition, 48 h
observation-type: log10 of TGI (log10 of the value in µM)
Scale type: logarithmic (base 10). Underlying TGI unit: µM.

[[record]]
molecule = "C/C=C(/C(=C/C)c1ccc(O)cc1)c1ccc(O)cc1"
reported = 0.55

[[record]]
molecule = "O=C(C(Br)C(Br)c1ccccc1)C(Br)C(Br)c1ccccc1 (stereo unspecified)"
reported = 0.49

[[record]]
molecule = "COc1ccc(NS(=O)c2ccc(Cl)cc2)cc1 (stereo unspecified)"
reported = 1.88


Respectfully, I request log10 of TGI for each entry included below.
1. CCCCC/C=C/C(=O)CCc1ccc(O)c(OC)c1
2. CCCCC/C=C1\CC(CO)(COC(=O)CC(C(C)C)C(C)C)OC1=O (stereo unspecified)

Outgoing:
1.28
1.34
